Taken from patent US20030186281A1.

test system: tet operator sequence; experiment: β-galactosidase activity of a tetracycline-regulated promoter in transformed E. coli with revTetR, in the presence and absence of anhydrotetracycline (atc); format: cell-based, Escherichia coli; conditions: RevTetR isolate cultured in the presence of anhydrotetracycline (ATC)
reported.metric: β-Galactosidase Activity, Cultured With ATC

[
  {
    "molecule": "TetRrevAtc4-61: revTetR(BD) L51L A56V I59H R62L (protein, Modified tetracycline repressor, revTetR(BD) L51L A56V I59H R62L) MSRLDKSKVINSALELLNEVGIEGLTTRKLAQKLGVEQPTLYWHVKNKRALLDALVVEHLALHHDYSLPAAGESWQSFLRNNAMSFRRALLRYRDGAKVHLGTRPDEKQYDTVETQLRFMTENGFSLRDGLYAISAVSHFTLGAVLEQQEHTAALTDRPAAPDENLPPLLREALQIMDSDDGEQAFLHGLESLIRGFEVQLTALLQIV",
    "measured": 23.831
  }
]
